Data provenance: PubChem BioAssay

# experiment notes: stimulators of nuclear beta-catenin in C2C12, primary screen, imaging, WNT3A-conditioned medium, mouse C2C12, NPC library (AID 1117326); also: reference of the scale not given here
# test settings: at 10 µM, stronger effect = higher value
measurement kind: nuclear beta-catenin stimulation (%)
Your answer is read as %, so omit the unit and give the number.

Example cases with answers are listed next.
# compound, endpoint unit, nuclear beta-catenin stimulation
data = [
    ("CC[N+](C)(C)c1cccc(O)c1", "%", -1.7),
    ("Cc1c(C(=O)NCCO)[n+](=O)c2ccccc2n1[O-]", "%", 5),
]

Please report the measured nuclear beta-catenin stimulation for `CS(=O)(=O)c1ccc(-c2cn3ccccc3n2)cc1` -2

Please report the measured nuclear beta-catenin stimulation for `O=C1CC[C@H](C(=O)N2CCCCC2)N1` 1.7

Please report the measured nuclear beta-catenin stimulation for `O=C1CCCc2c(O)cccc21` 1.1

Please report the measured nuclear beta-catenin stimulation for CC(COc1ccccc1)NC(C)C(O)c1ccc(O)cc1 (stereo unspecified) 2.4

Please report the measured nuclear beta-catenin stimulation for `C[C@]12C=CC(=O)C=C1[C@@H](F)C[C@@H]1[C@@H]2[C@@H](O)C[C@@]2(C)[C@H]1CC[C@]2(O)C(=O)CO` -1.5

Please report the measured nuclear beta-catenin stimulation for `NCCNc1cccc2ccccc12` 1.9

Please report the measured nuclear beta-catenin stimulation for `CCCCc1oc2ccccc2c1C(=O)c1cc(I)c(OCCN(CC)CC)c(I)c1` 71.4

Please report the measured nuclear beta-catenin stimulation for `CCOC(=O)c1ccc(NC(=O)CN2CCCCC2)cc1` 0.5

Please report the measured nuclear beta-catenin stimulation for `O=C(CO)[C@@H](O)[C@H](O)[C@@H](O)CO` -1.8

Please report the measured nuclear beta-catenin stimulation for `CC(=O)O[C@@H]1C(=O)O[C@@H]2[C@H]1OC(=O)[C@@H]2OC(C)=O` 0.6

* * *

# experiment notes: HCT116 colon cancer cell growth inhibition, primary screen, CellTiter-Glo luminescence, NPC library (AID 1117342)
# test settings: at 20 µM (top of the series)
measurement kind: inhibition of viability (%)
Your answer is read as %, so omit the unit and give the number.

Example cases with answers are listed next.
# compound, inhibition of viability [%]
data = [
    ("NCCNc1ccc(NCCN)c2c1C(=O)c1ccncc1C2=O", 47),
    ("CN1C(CSCC(F)(F)F)Nc2cc(Cl)c(S(N)(=O)=O)cc2S1(=O)=O (stereo unspecified)", 30.1),
]

Now consider the entry below.
Please report the measured inhibition of viability for `CN(C)C(=O)Oc1ccc[n+](C)c1` -1

* * *

# experiment notes: survival rescue of mitochondrial mutant cells in low glucose, primary screen, MELAS cybrids, Rieske KO mouse fibroblasts, CellTiter-Glo (AID 1508586);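 also: z relative to plate mean and SD of compound and empty wells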
# test settings: MELAS cybrid survival, CellTiter-Glo 48 h, stronger effect = higher value
Lab note: compare z-score against -0.1. Equal or greater, write Fulfilled. Smaller, write Not fulfilled.

# smiles data, class assignment
rows = [
    ("NS(=O)(=O)c1ccc(N=Nc2c(O)[nH]c3cccc(CCc4ccncc4)c23)cc1", "Not fulfilled"),
    ("c1ccc(Nc2ncc(-c3ccccc3)o2)cc1", "Fulfilled"),
    ("CS(=O)(=O)Nc1cccc(-c2ccc3c(NC(=O)C4CC4)n[nH]c3c2)c1", "Not fulfilled"),
]

Would you say `Cc1cccc(Oc2nccc(-c3c(-c4ccc(F)cc4)ncn3C3CCNCC3)n2)c1C` shows z-score at minimum -0.1? Not fulfilled

Would you say `Cc1ccc(-c2cc3c(NC(=O)C4CC4)ncnc3o2)cc1` shows z-score at minimum -0.1? Not fulfilled

Would you say `COC(=O)Nc1nc2ccc(Oc3cccc(NC(=O)Nc4cc(C(F)(F)F)ccc4F)c3)cc2[nH]1` shows z-score at minimum -0.1? Not fulfilled

Would you say `CC(C)[N+](C)(CCOC(=O)C1c2ccccc2Oc2ccccc21)C(C)C` shows z-score at minimum -0.1? Fulfilled

Would you say `O=C(Nc1ccc(Oc2ccc3nc(NC(=O)c4ccccc4)[nH]c3c2)cc1)Nc1cc(C(F)(F)F)ccc1F` shows z-score at minimum -0.1? Fulfilled

Would you say `COc1cc2ncn(-c3cc(OCc4ccccc4S(C)(=O)=O)c(C#N)s3)c2cc1OC` shows z-score at minimum -0.1? Fulfilled

Would you say `CCc1cccc(CC)c1/C=C/c1cncc(C(=O)NC)c1` shows z-score at minimum -0.1? Fulfilled

* * *

# tgt: Cellular tumor antigen p53 (Homo sapiens)
# experiment notes: kinase inhibitors altering GFP-p53 stability in HPV16-positive cells, imaging, known kinase inhibitor set, EGFP/DsRed ratio (AID 1053116);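 also: cells exposed to compounds for 24 h at 37 °C before reading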
# test settings: stronger effect = higher value
Binning rule for recorded EGFP/DsRed ratio: range A: < 0.04; range B: ≥ 0.04 and < 0.1; range C: ≥ 0.1

Examples with answers:
# smiles data, tgt, class assignment
measured = [
    ("O=C(Nc1n[nH]c2cc(-c3ccc(F)cc3)ccc12)C1CC1", "Cellular tumor antigen p53 (Homo sapiens)", "range C"),
    ("Cc1ccc(O)cc1Nc1ccnc2cc(-c3ccccn3)ccc12", "Cellular tumor antigen p53 (Homo sapiens)", "range C"),
    ("N#Cc1ccc(Oc2nccc(-c3c(-c4ccc(F)cc4)ncn3C3CCNCC3)n2)cc1", "Cellular tumor antigen p53 (Homo sapiens)", "range A"),
    ("COc1ccc(F)cc1C(=O)c1cnc(NC2CCN(S(C)(=O)=O)CC2)nc1N", "Cellular tumor antigen p53 (Homo sapiens)", "range B"),
]

Which bin should I file `Fc1ccc(-c2ncn(C3CCNCC3)c2-c2ccnc(Oc3ccc(Oc4ccccc4)cc3)n2)cc1` under? range C

Which bin should I file `CC(C)(CO)CNC(=O)c1ccc2[nH]c(O)c(N=Nc3ccc(S(N)(=O)=O)cc3)c2c1` under? range B

Which bin should I file `O=S(=O)(CCOCc1ccc(-c2ccc3ncnc(Nc4ccc(OCc5cccc(F)c5)c(Cl)c4)c3c2)o1)c1ccccc1` under? range A

Which bin should I file `CN1CCN(C(=O)c2ccc(NC(=O)Nc3ccc(N(C)c4ccnc(Nc5ccc(CS(C)(=O)=O)cc5)n4)cc3)cc2)CC1` under? range C

* * *

Each entry below carries its recorded inhibition.
# experiment notes: HDN33 neuroblastoma growth inhibition, cell-based, chromothripsis tumors, cisplatin or BGB combos (AID 1671450);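 also: cells exposed to compound for four days; 0% = vehicle DMSO and 100% = cell killing by high DMSO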
# test settings: HDN33 neuroblastoma cells, at 0.5 µM, stronger effect = higher value
The source made the active and inactive calls. Rule as the data show it: active = inhibition above about 80%; inactive = the rest.

Example cases with answers are listed next.
# compound, inhibition
data = [
    ("CCN(CC)CCCC(C)Nc1c2ccc(Cl)cc2nc2ccc(OC)cc12 (stereo unspecified)", "-12.9% (inactive)"),
    ("O=c1[nH]cc(F)c(=O)[nH]1", "16.5% (inactive)"),
    ("CC(=O)OCC(CCn1cnc2cnc(N)nc21)COC(C)=O", "-3.67% (inactive)"),
    ("O=C1c2c(O)ccc(O)c2C(=O)c2c(NCCNCCO)ccc(NCCNCCO)c21", "60.1% (inactive)"),
    ("CCn1cc(C(=O)O)c(=O)c2cc(F)c(N3CCNCC3)cc21", "12.2% (inactive)"),
]

Now consider the entry below.
Please report the measured inhibition for `O=C(O)CCCc1ccccc1` -18.6% (inactive)

* * *

# experiment notes: IRF3 reporter activation in THP-1 macrophages, cell-based, PMA-stimulated THP-1, luminescence (AID 1053176)
# test settings: PMA-differentiated THP-1, IRF3 reporter luminescence; stronger effect = higher value
Each entry below carries its recorded fraction signal.
Give only the figure.

Example cases with answers are listed next.
# compound, fraction signal
rows = [
    ("N#Cc1cccc(C(=O)c2cnn(-c3ccc(F)cc3)c2N)c1", 0.01),
    ("Cc1cc(O)cc(C)c1/C=C/c1cncc(-c2nn[nH]n2)c1", -0.004),
    ("O=S1CCN(Cc2ccc(-c3ccc4ncnc(Nc5ccc(OCc6cccc(F)c6)c(Cl)c5)c4c3)o2)CC1", -0.007),
    ("O=C1NC(=O)C(c2ccccc2Cl)=C1Nc1cc(Cl)c(O)c(Cl)c1", -0.002),
    ("Fc1ccc(-c2ncn(C3CCNCC3)c2-c2ccnc(Oc3ccccc3)n2)cc1", -0.004),
]

Now consider the entry below.
Please report the measured fraction signal for COc1ccc2cc(-c3c(-c4ccncc4)nc(-c4ccc(S(C)=O)cc4)n3C)ccc2c1 (stereo unspecified) -0.0035

* * *

# experiment notes: modulators of glucocorticoid suppression of NF-kB, cell-based, luciferase, IL-1B stimulus, dexamethasone (AID 624486)
# test settings: NF-kB luciferase reporter, IL-1B + dexamethasone, luminescence; measured here: IL-1B alone, no Dex
measurement kind: z-score
Give only the figure.

Example cases with answers are listed next.
# compound, measurement kind, test result
rows = [
    ("N#Cc1c(NC(=O)c2ccc(F)cc2)sc2c1CCCC2", "z-score", 14.3),
    ("CCNC(=O)O[C@H]1CN[C@H](C#Cc2cc3ncnc(Nc4ccc(OCc5cccc(F)c5)c(Cl)c4)c3s2)C1", "z-score", -0.355),
    ("Cc1ccc(NC(=O)c2ccnc(N3CCOCC3)c2)cc1-c1ccc(C(=O)NCC2CC2)cc1", "z-score", 1.12),
    ("Cn1cc(C2=C(c3ccccc3C(F)(F)F)C(=O)NC2=O)c2ccccc21", "z-score", 0.1),
    ("Cn1cc(C2=C(c3cn(CCCN=C(N)N)c4ccccc34)C(=O)NC2=O)c2ccccc21", "z-score", 0.295),
]

Please report the measured z-score for `Cc1ccc(C)c(C2=C(c3cn(C)c4ccccc34)C(=O)NC2=O)c1` -1.65

Please report the measured z-score for O=C1NC(=NCC(CO)c2ccccc2)SC1=Cc1ccc2ncccc2c1 (stereo not given) -0.105

Please report the measured z-score for `Fc1cccc(COc2ccc(Nc3ncnc4cc(-c5ccc[nH]5)sc34)cc2Cl)c1` -1.57
